Molecular target: T1, hCD112R mFC recombinant protein (human; murine, UniProt Q6DKI7 41-160)
T1 construct: range 41-160; expressed in 293E cells; also called hCD112R ECD mFC; hCD112R-ECD-mFC; not shown: murine IgG2a Fc domain (MX2-mFc vector)
T1 sequence (looked up): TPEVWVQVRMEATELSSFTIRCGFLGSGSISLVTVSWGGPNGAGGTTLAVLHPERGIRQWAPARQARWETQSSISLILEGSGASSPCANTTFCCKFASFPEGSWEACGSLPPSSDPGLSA
Test: ELISA, coated hCD112R-ECD-mFC
Below is a list of entries, each paired with its recorded EC50 value.
Numbers only; they are read as ng/mL.

binder	unit	reported_result
Hu8 (antibody, IgG4, V domains shown, humanized IgG4; also called Hu-08) VH: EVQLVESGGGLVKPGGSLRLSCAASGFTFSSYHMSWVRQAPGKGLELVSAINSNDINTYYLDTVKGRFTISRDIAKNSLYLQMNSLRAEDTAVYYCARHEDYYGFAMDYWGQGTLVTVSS VL: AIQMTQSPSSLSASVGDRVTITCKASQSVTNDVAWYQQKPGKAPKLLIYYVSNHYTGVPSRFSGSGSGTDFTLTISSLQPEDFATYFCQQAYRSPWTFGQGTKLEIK	ng/mL	3.09

Next binder, please.
Name the recorded EC50 of the binder listed here: Hu14 (antibody, IgG4, V domains shown, humanized IgG4) VH: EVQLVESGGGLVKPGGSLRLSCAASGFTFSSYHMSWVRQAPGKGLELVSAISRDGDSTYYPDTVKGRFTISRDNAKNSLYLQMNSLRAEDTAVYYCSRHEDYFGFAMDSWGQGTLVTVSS VL: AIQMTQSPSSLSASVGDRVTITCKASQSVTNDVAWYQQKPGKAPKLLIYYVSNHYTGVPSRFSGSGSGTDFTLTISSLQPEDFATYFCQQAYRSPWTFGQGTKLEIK
4.43
